These entries and their values trace back to patent US12421253B2.

target: KRas^G12R (Homo sapiens, UniProt P01116, G12R); construct: […]; biotin (biotinylated); purchased Accelegan Inc; experiment: KRas binding assay (TR-FRET displacement of Cy5 labelled tracer)
Sequence (P01116 1-169 isoform P01116-2 G12R): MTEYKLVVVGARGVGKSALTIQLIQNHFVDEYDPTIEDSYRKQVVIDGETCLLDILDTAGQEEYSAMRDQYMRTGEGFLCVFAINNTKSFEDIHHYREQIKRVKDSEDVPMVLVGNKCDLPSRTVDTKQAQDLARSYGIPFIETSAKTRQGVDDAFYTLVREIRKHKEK
The compounds listed here are annotated with their log10 of IC50.
Response schema: value (number) is log10 of IC50 in units of nM.

# count of solved cases: 2
| compound | log10 of IC50 |
| --- | --- |
| CCc1cccc2cccc(N3CCc4c(nc(OCC56CCCN5CCC6)nc4N4CCC(CO)C(O)C4)C3)c12 (centres unmarked) | 2.67 |
| CN(C)C(=O)c1cc2n(n1)CCCN(c1nc(OC[C@@H]3CCCN3C)nc3c1CCN(c1cccc4cccc(Cl)c14)C3)C2 | 3.62 |

Problem: KRas^G12R (Homo sapiens, UniProt P01116, G12R) / log10 of IC50 / Oc1cc(N2CCc3c(nc(OC[C@@]45CCCN4C[C@H](F)C5)nc3N3CC4CC(O)CC3C4)C2)c2c(Cl)c(F)ccc2c1 (single isomer, unassigned) [Example 76] : value?
Result: 0.85

Problem: KRas^G12R (Homo sapiens, UniProt P01116, G12R) / log10 of IC50 / CCc1c(F)ccc2cc(O)cc(N3CCc4c(nc(OCC5(CN(C)C)CC5)nc4N4CCCC5(CNS(=O)(=O)N5)C4)C3)c12 (centres unmarked) : value?
Result: 0.85

Problem: KRas^G12R (Homo sapiens, UniProt P01116, G12R) / log10 of IC50 / CCc1cccc2cccc(N3CCc4c(nc(OCC56CCCN5CCC6)nc4N4CCCC(c5noc(C(F)(F)F)n5)C4)C3)c12 (centres unmarked) : value?
Result: 3.54

---

tested on: MKN1 cells, pERK; assay: Inhibition of KRas phosphorylation of ERK (Cisbio HTRF Advanced pERK assay); assay type: cell-based; conditions: Homo sapiens, MKN-1, 3 h, read-out: Inhibition (HTRF IC50 nM) of KRas-mediated Phosphorylation of ERK, MKN1
propertyLabel: IC50 (nM)
State the answer as a number, implicitly in nM.

Problem: MKN1 cells, pERK / IC50 / CCc1c(F)ccc2cc(O)cc(N3CCc4c(nc(OC[C@@]56CCCN5C[C@H](F)C6)nc4N4CCCC5(CNS(=O)(=O)N5)C4)C3)c12 (stereo partly drawn) [Example 61] : value?
Result: 51

---

The compounds listed here are annotated with their IC50.
molecular target: KRas^G12D (Homo sapiens, UniProt P01116, G12D); construct: […]; biotin (biotinylated); purchased Accelegan Inc; assay: KRas binding assay (TR-FRET displacement of Cy5 labelled tracer)
Sequence (P01116 1-169 isoform P01116-2 G12D): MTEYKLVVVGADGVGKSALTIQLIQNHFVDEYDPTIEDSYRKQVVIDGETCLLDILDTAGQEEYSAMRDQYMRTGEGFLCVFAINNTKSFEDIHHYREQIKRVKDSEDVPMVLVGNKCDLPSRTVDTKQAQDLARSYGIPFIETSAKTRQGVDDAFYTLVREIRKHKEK
State the answer as a number, implicitly in µM.

# count of solved cases: 4
| compound | IC50 [µM] |
| --- | --- |
| CCc1cccc2cccc(N3CCc4c(nc(OCC56CCCN5CCC6)nc4N4CC(C)CC(C(N)=O)C4)C3)c12 (stereo not shown) [Example 105] | 0.607 |
| CCc1cccc2cccc(N3CCc4c(nc(OCC56CCCN5CCC6)nc4N4CCCC(NC(=O)N(C)C)C4)C3)c12 (stereo not shown) [Example 91] | 1.04 |
| CCc1cccc2cccc(N3CCc4c(nc(OCC56CCCN5CCC6)nc4NCC4(C)CSC4)C3)c12 [Example 171] | 16.6 |
| CCc1cccc2cccc(N3CCc4c(nc(OCC56CCCN5CCC6)nc4N4CCCC(N5CCCS5(=O)=O)C4)C3)c12 (stereo not shown) [Example 85] | 1.03 |

With those in mind, consider the next compound.
Problem: Need IC50 of CCc1cccc2cccc(N3CCc4c(nc(OCC56CCCN5CCC6)nc4N4CCCC(c5nc(=O)[nH][nH]5)C4)C3)c12 (stereo not shown) [Example 104] , thanks.
Result: 4.2

---

test system: PSN1 cells, pERK; assay: Inhibition of KRas phosphorylation of ERK (Cisbio HTRF Advanced pERK assay); type: cell-based; settings: Homo sapiens, PSN1, 3 h, read-out: Inhibition (HTRF IC50 nM) of KRas-mediated Phosphorylation of ERK, PSN1
propertyLabel: IC50 (nM)
State the answer as a number, implicitly in nM.

| molecule | IC50 [nM] |
| --- | --- |
| O=S1(=O)NCC2(CCCN(c3nc(OC[C@@]45CCCN4C[C@H](F)C5)nc4c3CCN(c3cc(O)cc5ccc(F)c(Cl)c35)C4)C2)N1 (stereo partly drawn) [Example 72] | 148 |
| CCc1c(F)ccc2cc(O)cc(N3CCc4c(nc(OC[C@@]56CCCN5C[C@H](F)C6)nc4N4CCCC5(CC(O)C5)C4)C3)c12 (stereo partly drawn) [Example 60] | 6610 |
| CCc1c(F)ccc2cc(O)cc(N3CCc4c(nc(OCC5(CN(C)C)CC5)nc4N4CCCC5(C4)NC(=O)NC5=O)C3)c12 (stereo not drawn) [Example 201] | 80.5 |

Problem: PSN1 cells, pERK / IC50 / O=C1NC(=O)C2(CCCN(c3nc(OC[C@@]45CCCN4C[C@H](F)C5)nc4c3CCN(c3cc(O)cc5ccc(F)c(Cl)c35)C4)C2)N1 (stereo partly drawn) [Example 69] : value?
Result: 578

---

The molecules listed here are annotated with their pIC50.
target: KRas^G12C (Homo sapiens, UniProt P01116, G12C); assay: biochemical
Sequence (P01116 1-169 isoform P01116-2 G12C): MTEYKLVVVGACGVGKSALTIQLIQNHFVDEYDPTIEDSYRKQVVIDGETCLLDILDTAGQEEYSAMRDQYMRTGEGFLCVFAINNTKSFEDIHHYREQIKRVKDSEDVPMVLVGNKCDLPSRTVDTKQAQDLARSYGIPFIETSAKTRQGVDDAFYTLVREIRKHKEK
Scale: negative log10 of molar concentration, which is what pIC50 denotes.

# count of solved cases: 6
| molecule | pIC50 |
| --- | --- |
| O=C1NC(=O)C2CN(c3nc(OCC45CCCN4CCC5)nc4c3CCN(c3cccc5cccc(F)c35)C4)CC12 (stereo not shown) | 5.45 |
| CCc1cccc2cccc(N3CCc4c(nc(OCC56CCCN5CCC6)nc4N4CCCC(N5CCCS5(=O)=O)C4)C3)c12 (stereo not shown) | 6.56 |
| CCc1cccc2cccc(N3CCc4c(nc(OCC56CCCN5CCC6)nc4N4CCCC(c5cc(=O)[nH][nH]5)C4)C3)c12 (stereo not shown) | 6.33 |
| CCc1cccc2cccc(N3CCc4c(nc(OCC56CCCN5CCC6)nc4N4CCCc5ncccc5C4)C3)c12 | 6.05 |
| CCc1cccc2cccc(N3CCc4c(nc(OCC56CCCN5CCC6)nc4N4CCOCC(n5cccn5)C4)C3)c12 (stereo not shown) | 6.94 |
| O=C1NC(=O)C2CN(c3nc(OCC45CCCN4CCC5)nc4c3CCN(c3cccc5cccc(Br)c35)C4)CC12 (stereo not shown) | 7.10 |

Problem: KRas^G12C (Homo sapiens, UniProt P01116, G12C) / pIC50 / CCc1cccc2cccc(N3CCc4c(nc(OCC56CCCN5CCC6)nc4N4CCOC(CC(N)=O)C4)C3)c12 (stereo not shown) : value?
Result: 6.37

---

The compounds listed here are annotated with their IC50.
biological target: KRas^G12V (Homo sapiens, UniProt P01116, G12V); construct: […]; biotin (biotinylated); assay: KRas binding assay (TR-FRET displacement of Cy5 labelled tracer)
Sequence (P01116 1-169 isoform P01116-2 G12V): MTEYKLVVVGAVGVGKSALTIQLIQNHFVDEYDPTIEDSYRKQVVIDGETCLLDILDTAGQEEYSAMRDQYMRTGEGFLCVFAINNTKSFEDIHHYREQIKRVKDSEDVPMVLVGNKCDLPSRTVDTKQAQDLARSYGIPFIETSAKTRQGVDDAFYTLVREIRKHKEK
State the answer as a number, implicitly in µM.

Problem: Need IC50 of `CCc1cccc2cccc(N3CCc4c(nc(OCC56CCCN5CCC6)nc4N4CCN(c5ccncn5)CC4)C3)c12` , thanks.
Result: 2.86

Problem: Need IC50 of `CCc1cccc2cccc(N3CCc4c(nc(OCC56CCCN5CCC6)nc4NCCNc4ncccc4C#N)C3)c12` , thanks.
Result: 3.07

Problem: Need IC50 of `CCc1c(F)ccc2cc(O)cc(N3CCc4c(nc(OCC5(CN(C)C)CC5)nc4N4CCCn5nc(C(=O)N(C)C)cc5C4)C3)c12` , thanks.
Result: 0.052

Problem: Need IC50 of CCc1cccc2cccc(N3CCc4c(nc(OCC56CCCN5CCC6)nc4N4CCCC(n5ccc(C)n5)C4)C3)c12 (stereo not shown) , thanks.
Result: 1.29

Problem: Need IC50 of `CN1CCC[C@H]1COc1nc2c(c(N3C[C@@H]4C(=O)NC(=O)[C@@H]4C3)n1)CCN(c1cccc3cccc(Cl)c13)C2` , thanks.
Result: 0.833

---

The molecules listed here are annotated with their IC50.
biological target: KRas^G12V (Homo sapiens, UniProt P01116, G12V); construct: […]; biotin (biotinylated); assay: KRas binding assay (TR-FRET displacement of Cy5 labelled tracer)

| molecule | testedOn | IC50 |
| --- | --- | --- |
| CCc1cccc2cccc(N3CCc4c(nc(OCC56CCCN5CCC6)nc4N4CCCC(C)(O)C4)C3)c12 (stereo not drawn) [Example 4] | KRas^G12V (Homo sapiens, UniProt P01116, G12V) | 90 nM |
| CCc1c(F)ccc2cc(O)cc(N3CCc4c(nc(OC[C@@]56CCCN5C[C@H](F)C6)nc4N4C[C@H](O)C[C@H](C(N)=O)C4)C3)c12 [Example 187] | KRas^G12V (Homo sapiens, UniProt P01116, G12V) | ≤ 2 nM |
| O=C1NCC2(CCCN(c3nc(OC[C@@]45CCCN4C[C@H](F)C5)nc4c3CCN(c3cc(O)cc5ccc(F)c(Cl)c35)C4)C2)N1 (stereo partly drawn) [Example 228] | KRas^G12V (Homo sapiens, UniProt P01116, G12V) | ≤ 2 nM |
| CN1CCC[C@H]1COc1nc2c(c(N3CCCC4(CNC(=O)N4)C3)n1)CCN(c1cccc3cccc(Cl)c13)C2 (stereo partly drawn) [Example 210] | KRas^G12V (Homo sapiens, UniProt P01116, G12V) | 497 nM |
| Oc1cc(N2CCc3c(nc(OC[C@@]45CCCN4C[C@H](F)C5)nc3N3CCCC4(CC(O)C4)C3)C2)c2c(Br)c(F)ccc2c1 (stereo partly drawn) [Example 224] | KRas^G12V (Homo sapiens, UniProt P01116, G12V) | ≤ 2 nM |

With those in mind, consider the next molecule.
Problem: Need IC50 of CN(C)C(=O)c1cc2n(n1)CCCN(c1nc(OC[C@@]34CCCN3C[C@H](F)C4)nc3c1CCN(c1cc(O)cc4ccc(F)c(Br)c14)C3)C2 [Example 218] , thanks.
Result: ≤ 2 nM
